These measurements were taken from patent US20190002511A1.

Record form. Attribute: IC50, inhibition of thrombin amidolytic activity. Fill in for each entry.
Assay Target: human α-thrombin (recombinant) (human, UniProt P00734 328-363; P00734 364-622)
Assay Name: cell-based or functional assay

Give its IC50, inhibition of thrombin amidolytic activity value. Item: SDEAVRAIPKMYSTAPPGDFEEIPDDAIEECA (Ultravariegin with C-terminal CA) [UV008] 1.82 nM

Would you mind doing SDQGDVAEPKMYSTAPPFDFEAIPEEYLDDES [Variegin YS] as well? 3.16 nM

Would you mind doing SDQGDVAIPKMYSTAPPGDFEEIPDDAIEE [UV003] as well? 0.6 nM

Would you mind doing CDEAVRAIPKMYSTAPPGDFEEIPDDAIEE (Ultravariegin with Cys at the N-terminus) [UV007] as well? 0.601 nM
